Source: the Deep4Chem optical property database

protocol_notes: solvent given as SMILES
measurement_setup: in O
Note to self: use yes (1) only for emission maximum readings below 500 nm; a reading exactly at 500 nm still gets no (0).

{"compound": "CC1=CC2=Nc3nc(C)[n+](C)cc3CN2C=C1", "classification": "yes (1)"}
{"compound": "CCOC(=O)CCOc1ccccc1C(c1c(C)[nH]c2ccccc12)c1c(C)[nH]c2ccccc12", "classification": "yes (1)"}
{"compound": "c1ccc(-c2nc3c(ccc4[nH]ccc43)o2)cc1", "classification": "yes (1)"}
{"compound": "Cc1cc(=O)c2ccc(N)cc2o1", "classification": "yes (1)"}
{"compound": "CN(C)c1ccc(/C=C/c2ccc3ccccc3[n+]2C)cc1", "classification": "no (0)"}
{"compound": "CC1(C)Nc2cc(Cl)ccc2-c2[nH]c3ccccc3c(=O)c21", "classification": "no (0)"}
{"compound": "Cc1cc(C)nc(N)n1", "classification": "yes (1)"}
{"compound": "NS(=O)(=O)c1ccc(N2N=C(c3ccc(O)cc3)CC2c2ccccc2)cc1 (configuration not stated)", "classification": "yes (1)"}
{"compound": "CC[N+](CC)=c1ccc2cc3oc4cc(N)ccc4c3oc-2c1", "classification": "no (0)"}
{"compound": "CC1(C)C(/C=C/c2cc3ccc(O)cc3oc2=O)=[N+](CCCS(=O)(=O)[O-])c2ccc3c(S(=O)(=O)O)cc(S(=O)(=O)O)cc3c21", "classification": "no (0)"}
{"compound": "c1cc2c3ccc[n+]4cccc(c5ccc[n+](c1)c25)c34", "classification": "yes (1)"}
{"compound": "CC(=O)OC[C@@H]1O[C@H](N2C=CC3=Nc4nc(C)[n+](C)cc4CN3C2=O)[C@@H](O)[C@H]1O", "classification": "yes (1)"}
{"compound": "CCCCC[n+]1ccc(/C=C/c2ccc(N(C)C)c3ccccc23)c2ccccc21", "classification": "no (0)"}
{"compound": "Cc1ccc(N(C)C)cc1C1=C2C=CC(=[N+](C)C)C=C2[Si](C)(C)c2cc(N(C)C)ccc21", "classification": "no (0)"}
{"compound": "O=Cc1ccc(-c2cccc(-c3nc4ccccc4s3)c2O)o1", "classification": "no (0)"}
{"compound": "N#Cc1cc2ccccc2[nH]1", "classification": "yes (1)"}
{"compound": "CC(=O)c1ccc2ccc3c(NCCC(=O)NCCCCCCc4nc5c(=O)[nH]c(N)nc5n4[C@H]4C[C@H](O)[C@@H](CO)O4)ccc4ccc1c2c43", "classification": "no (0)"}
{"compound": "CCN(CC)c1ccc2c(C)cc(=O)oc2c1", "classification": "yes (1)"}
{"compound": "NCCc1c[nH]c2ccc(O)cc12", "classification": "yes (1)"}
{"compound": "CN(C)CCCN1c2ccccc2Sc2ccc(C(F)(F)F)cc21", "classification": "yes (1)"}
{"compound": "Cc1cc2nc3cc(C)c(N)cc3[n+](-c3ccccc3)c2cc1N", "classification": "no (0)"}
